I'd appreciate it if you could supply IC50 values for the items below.
Target: Cytochrome P450 1B1 (Homo sapiens, UniProt Q16678)
Sequence (Q16678 whole entry): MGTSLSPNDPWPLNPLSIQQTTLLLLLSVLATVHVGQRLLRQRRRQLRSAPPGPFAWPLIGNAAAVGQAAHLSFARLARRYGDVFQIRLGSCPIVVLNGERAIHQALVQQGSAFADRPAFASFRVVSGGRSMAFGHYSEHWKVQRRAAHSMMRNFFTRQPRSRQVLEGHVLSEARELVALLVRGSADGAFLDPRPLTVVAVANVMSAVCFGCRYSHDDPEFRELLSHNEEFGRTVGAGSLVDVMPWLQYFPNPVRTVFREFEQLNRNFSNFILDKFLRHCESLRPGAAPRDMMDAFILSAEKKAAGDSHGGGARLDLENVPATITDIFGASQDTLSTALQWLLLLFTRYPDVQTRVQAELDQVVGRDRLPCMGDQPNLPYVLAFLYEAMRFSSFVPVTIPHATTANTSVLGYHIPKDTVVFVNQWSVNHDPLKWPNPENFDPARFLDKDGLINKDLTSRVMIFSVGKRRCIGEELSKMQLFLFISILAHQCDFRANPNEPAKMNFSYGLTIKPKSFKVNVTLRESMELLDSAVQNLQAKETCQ
Numbers only, in nM.

Some solved cases for reference:
| substanceSmiles | IC50 [nM] |
| --- | --- |
| COc1ccc(-c2cc(=O)c3cc(OC)c4c(OC)ccc(OC)c4c3o2)cc1 | 1.1 |
| COc1ccc(OC)c2c1c(OC)cc1c(=O)c(OCCCCOC(=O)CN)c(-c3cccc(F)c3)oc12 | 37 |
| COc1cc(-c2cc(=O)c3cc(OC)c4c(OC)ccc(OC)c4c3o2)cc(OC)c1OC | 9.8 |
| COc1ccc(OC)c2c1c(OC)cc1c(=O)cc(-c3ccccc3O)oc12 | 62.9 |

Query string: Please give the measured IC50 for this molecule: COc1ccc(OC)c2c1c(OC)cc1c(=O)cc(-c3ccc(OCc4ccccc4)cc3)oc12
Result string: 771
